target: rat orexin 1 receptor (Rattus norvegicus)
run description: Rat orexin 1 receptor radioligand binding
assay metric: Ki (nM)
Provide the reading as a plain figure in nM.

Input line: Query Ki on rat orexin 1 receptor (Rattus norvegicus) for O=C(c1ccccc1-n1nccn1)N1CC2CCC1C(Nc1cnc(C(F)(F)F)cn1)C2 (racemic)
Output line: 12

* * *

I'd be grateful if you could share measured Ki for these entries.
target: human orexin 1 receptor (Homo sapiens)
run description: Human orexin 1 receptor radioligand binding
run parameters: human orexin 1 receptor; averages of 2-20 runs; read-out: hOX1 Ki
Provide the reading as a plain figure in nM.

Input line: Query Ki on human orexin 1 receptor (Homo sapiens) for O=C(c1ncccc1-c1ncccn1)N1C[C@H]2C[C@@H](Oc3ccc(C(F)(F)F)cn3)[C@@H]1C2
Output line: 14

Input line: Quick one: Cc1cnc(O[C@@H]2C[C@H]3C[C@@H]2N(C(=O)c2ccccc2-n2nccn2)C3)nc1
Output line: 132

Input line: Quick one: Cc1cnc(C(=O)N2C[C@H]3C[C@@H](Oc4ccc(C(F)F)cn4)[C@@H]2C3)c(-c2ncccn2)c1
Output line: 39

Input line: Quick one: COc1ccc(C(=O)N2C[C@H]3C[C@@H](Oc4ccc(C(F)(F)F)cn4)[C@@H]2C3)c(-c2ncccn2)c1
Output line: 34

Input line: Quick one: O=C(c1ccccc1-c1ncc(F)cn1)N1C[C@H]2C[C@@H](Oc3ccc(Cl)cn3)[C@@H]1C2
Output line: 12

Input line: Quick one: O=C(c1cccc(F)c1-n1nccn1)N1C[C@H]2C[C@@H](Oc3ccc(Br)cn3)[C@@H]1C2
Output line: 4

Input line: Quick one: Cc1cnc(N[C@@H]2C[C@H]3C[C@@H]2N(C(=O)c2cccc(F)c2-n2nccn2)C3)cn1
Output line: 29

Input line: Quick one: O=C(c1cccc2cc[nH]c12)N1C[C@H]2C[C@@H](Nc3ccc(C(F)(F)F)cn3)[C@@H]1C2
Output line: 33

Input line: Quick one: Cc1cnc(C(=O)N2C[C@H]3C[C@@H](Nc4ccc(C(F)(F)F)cn4)[C@@H]2C3)c(-c2ncccn2)c1
Output line: 7

Input line: Quick one: O=C(c1nccnc1-c1ccccc1)N1C[C@H]2C[C@@H](Nc3cnc(C(F)(F)F)cn3)[C@@H]1C2
Output line: 35

Input line: Quick one: Cc1ccc(N[C@@H]2C[C@H]3C[C@@H]2N(C(=O)c2cccc(F)c2-c2ncccn2)C3)cc1
Output line: 15

Input line: Quick one: Cc1ccc(C(=O)N2C[C@H]3C[C@@H](Oc4ccc(C(F)(F)F)cn4)[C@@H]2C3)c(-n2ccnn2)n1
Output line: 368

Input line: Quick one: O=C(c1ccc(F)cc1-n1nccn1)N1C[C@H]2C[C@@H](Nc3ccc(C(F)(F)F)cn3)[C@@H]1C2
Output line: 7

Input line: Quick one: O=C(c1ccc(F)cc1-c1ncccn1)N1C[C@H]2C[C@@H](Nc3ncc(Cl)cn3)[C@@H]1C2
Output line: 13

Input line: Quick one: COc1ccc(N[C@@H]2C[C@H]3C[C@@H]2N(C(=O)c2ccccc2-n2nccn2)C3)nc1
Output line: 191

Input line: Quick one: O=C(c1cc(F)ccc1-c1ncccn1)N1C[C@H]2C[C@@H](Nc3ccc(Cl)cn3)[C@@H]1C2
Output line: 7

Input line: Quick one: O=C(c1cccc(F)c1-c1ncccn1)N1C[C@H]2C[C@@H](Nc3ccc(Cl)cn3)[C@@H]1C2
Output line: 12

Input line: Quick one: O=C(c1ccccc1-c1ncccn1)N1C[C@@H]2CC[C@H]1[C@H](Nc1cnc(C(F)(F)F)cn1)C2
Output line: 4

Input line: Quick one: CN(c1ccc(C(F)(F)F)cn1)[C@@H]1C[C@H]2C[C@@H]1N(C(=O)c1cc(F)ccc1-n1nccn1)C2
Output line: 3

Input line: Quick one: O=C(c1cccc(F)c1-c1ncccn1)N1C[C@H]2C[C@@H](Oc3ncc(C(F)(F)F)cc3F)[C@@H]1C2
Output line: 12

Input line: Quick one: O=C(c1cc(F)ccc1-c1ncco1)N1C[C@H]2C[C@@H](Nc3cnc(C(F)(F)F)cn3)[C@@H]1C2
Output line: 13

Input line: Quick one: CN(c1cnc(C(F)(F)F)cn1)[C@@H]1C[C@H]2C[C@@H]1N(C(=O)c1cccc(F)c1-c1ncccn1)C2
Output line: 6

Input line: Quick one: Cc1ccc(O[C@@H]2C[C@H]3C[C@@H]2N(C(=O)c2cccc(F)c2-c2ncccn2)C3)nc1
Output line: 11

Input line: Quick one: Cc1cnc(N[C@@H]2C[C@H]3C[C@@H]2N(C(=O)c2cc(F)ccc2-n2nccn2)C3)cn1
Output line: 49

Input line: Quick one: O=C(c1cc(F)ccc1-n1nccn1)N1C[C@H]2C[C@@H](Oc3ccc(Br)cn3)[C@@H]1C2
Output line: 31

Input line: Quick one: O=C(c1c(F)cccc1-n1nccn1)N1C[C@H]2C[C@@H](Nc3cnc(C(F)(F)F)cn3)[C@@H]1C2
Output line: 8

Input line: Quick one: O=C(c1cccc(F)c1-c1ncccn1)N1C[C@H]2C[C@@H](Oc3ccc(C(F)(F)F)nn3)[C@@H]1C2
Output line: 348

Input line: Quick one: Cc1ccc(-n2nccn2)c(C(=O)N2C[C@@H]3CC[C@H]2[C@H](Oc2cnc(C(F)(F)F)cn2)C3)n1
Output line: 13

Input line: Quick one: O=C(c1cc(F)ccc1-c1ncccn1)N1C[C@H]2C[C@@H](Nc3ccc(C(F)(F)F)cn3)[C@@H]1C2
Output line: 3
